- Type: in vivo, rat
- settings: PM/P (polyI:C+maoto vs polyI:C), 2h
We begin with a simple list: items and their reported log2FC of plasma level.
Lab note: record the figure alone, no unit after it.

Please review the following examples before continuing.
compound	log2FC of plasma level
CCCCC[C@H](O)/C=C/[C@@H]1[C@@H](C/C=C\CCCC(=O)O)[C@@H](O)C[C@H]1O	0.14
CCCCCC(=O)/C=C/[C@@H]1[C@H](C/C=C\CCCC(=O)O)[C@@H](O)C[C@H]1O	-0.14
CC/C=C\CC(O)C(O)C/C=C\C/C=C\C/C=C\CCCC(=O)O (stereo not shown)	-0.13

Proceed to the following item.
Task: Recorded log2FC of plasma level for CC(O)CCC/C=C\C/C=C\C/C=C\C/C=C\CCCC(=O)O (stereo not shown) , please?
Result: 0.46

---

- protocol.details: Plasma PK of major maoto compounds by LC-MS/MS after oral administration of maoto
- Format: in vivo, rat
- settings: Sprague-Dawley, rat, plasma, po, 2 g/kg
We begin with a simple list: items and their reported half-life.
Remember to put the unit after the number in your answer.

Please review the following examples before continuing.
compound.smiles	half-life
CN[C@@H](C)[C@@H](O)c1ccccc1	6.58 h
N#C[C@H](O[C@@H]1O[C@H](CO[C@@H]2O[C@H](CO)[C@@H](O)[C@H](O)[C@H]2O)[C@@H](O)[C@H](O)[C@H]1O)c1ccccc1	0.937 h
O=C(/C=C/c1ccc(O)cc1)c1ccc(O)cc1O	11.1 h

Proceed to the following item.
Task: Recorded half-life for CN[C@@H](C)[C@H](O)c1ccccc1 , please?
Result: 1.44 h

---

- protocol.details: Common metabolites in rat plasma by GC-MS/MS after polyI:C and/or maoto
- Type: in vivo
- settings: PM/P (polyI:C+maoto vs polyI:C), 20h
I'd appreciate it if you marked entries Condition met when log2FC of plasma level is lower than 0.06 and Condition not met when it is not.

These recorded examples may help you get a feel for the data.
compound	label.value
NC(N)=O [Urea]	Condition met
O=C(CO)C(O)C(O)CO (centres unmarked) [Ribulose]	Condition met
O=C[C@H](O)[C@H](O)[C@H](O)CO [Ribose]	Condition not met

Task: Given the entry NCC(=O)O [Glycine] , would its reported log2FC of plasma level be below 0.06?
Result: Condition not met

---

- protocol.details: Plasma PK of major maoto compounds by LC-MS/MS after oral administration of maoto
- Assay type: in vivo, rat
- settings: Sprague-Dawley, rat, plasma, po, 1 g/kg; read-out: Tmax
measured.parameter: Tmax (min)
Unit min implied. Number only.

Please review the following examples before continuing.
compound	Tmax, min
CN[C@@H](C)[C@H](O)c1ccccc1	15
N#C[C@H](O[C@@H]1O[C@H](CO)[C@@H](O)[C@H](O)[C@H]1O)c1ccccc1	30
O=C1C[C@@H](c2ccc(O[C@@H]3O[C@H](CO)[C@@H](O)[C@H](O)[C@H]3O)cc2)Oc2cc(O)ccc21	15
COc1c(CC=C(C)C)c(O)cc2oc(=O)c(-c3ccc(O)cc3O)cc12	15
CC1(C)[C@@H](O)CC[C@]2(C)[C@H]3C(=O)C=C4[C@@H]5C[C@@](C)(C(=O)O)CC[C@]5(C)CC[C@@]4(C)[C@]3(C)CC[C@@H]12	480
CN[C@@H](C)[C@@H](O)c1ccccc1	15
O=C(/C=C/c1ccc(O[C@@H]2O[C@H](CO)[C@@H](O)[C@H](O)[C@H]2O)cc1)c1ccc(O)cc1O	15
N#C[C@H](O[C@@H]1O[C@H](CO[C@@H]2O[C@H](CO)[C@@H](O)[C@H](O)[C@H]2O)[C@@H](O)[C@H](O)[C@H]1O)c1ccccc1	15

Task: Recorded Tmax for O=C(/C=C/c1ccc(O)cc1)c1ccc(O)cc1O , please?
Result: 15

Task: Recorded Tmax for COc1cc2ccc(=O)oc2cc1O , please?
Result: 15

---

We begin with a simple list: items and their reported half-life.
- protocol.details: Plasma PK of major maoto compounds by LC-MS/MS after oral administration of maoto
- Type: in vivo, rat
- settings: Sprague-Dawley, rat, plasma, po, 2 g/kg
Unit h implied. Number only.

compound	unit.label	half-life
N#C[C@H](O[C@@H]1O[C@H](CO)[C@@H](O)[C@H](O)[C@H]1O)c1ccccc1 [Prunasin]	h	2.45
O=C(O)/C=C/c1ccccc1 [Cinnamic acid]	h	1.3
Oc1cc(O)c2c(c1)O[C@H](c1ccc(O)c(O)c1)[C@H](O)C2 [Epicatechin]	h	2.03
O=C1C[C@@H](c2ccc(O[C@@H]3O[C@H](CO)[C@@H](O)[C@H](O)[C@H]3O)cc2)Oc2cc(O)ccc21 [Liquiritin]	h	2.23
CC(C(O)c1ccccc1)N(C)C (racemic) [dl-Methylephedrine]	h	1.99

Task: Recorded half-life for Oc1cc(O)c2c(c1)O[C@H](c1cc(O)c(O)c(O)c1)[C@H](O)C2 [Epigallocatechin] , please?
Result: 3.16

Task: Recorded half-life for COc1cc2ccc(=O)oc2cc1O [Scopoletin] , please?
Result: 2.39

---

- protocol.details: Plasma PK of major maoto compounds by LC-MS/MS after oral administration of maoto
- Format: in vivo, rat
- settings: rat plasma, oral maoto 1 g/kg
measured.parameter: AUClast

Please review the following examples before continuing.
molecule	AUClast
Oc1cc(O)c2c(c1)O[C@H](c1ccc(O)c(O)c1)[C@@H](O)C2 [(+)-Catechin]	BQL
O=C1C[C@@H](c2ccc(O)cc2)Oc2cc(O)ccc21	17.4 ng·h/mL
O=c1ccc2ccc(O)cc2o1 [7-hydroxycoumarin]	BQL
Oc1cc(O)c2c(c1)O[C@H](c1ccc(O)c(O)c1)[C@H](O)[C@H]2c1c(O)cc(O)c2c1O[C@H](c1ccc(O)c(O)c1)[C@H](O)C2	BQL

Proceed to the following item.
Task: Recorded AUClast for Oc1cc(O)c2c(c1)O[C@H](c1ccc(O)c(O)c1)[C@H](O)[C@H]2c1c(O)cc(O)c2c1O[C@H](c1ccc(O)c(O)c1)[C@H](O)[C@H]2c1c(O)cc(O)c2c1O[C@H](c1ccc(O)c(O)c1)[C@H](O)C2 , please?
Result: BQL

---

- protocol.details: Plasma PK of major maoto compounds by LC-MS/MS after oral administration of maoto
- Format: in vivo, rat
- settings: Sprague-Dawley, rat, plasma, po, 1 g/kg; read-out: Cmax
I'd appreciate it if you marked entries rule met when Cmax is lower than 2 ng/mL and rule not met when it is not.

Task: Given the entry COc1cc2ccc(=O)oc2cc1O , would its reported Cmax be below 2 ng/mL?
Result: rule met

Task: Given the entry O=C(O)/C=C/c1ccccc1 , would its reported Cmax be below 2 ng/mL?
Result: rule not met

Task: Given the entry O=C(/C=C/c1ccc(O[C@@H]2O[C@H](CO)[C@@H](O)[C@H](O)[C@H]2O)cc1)c1ccc(O)cc1O , would its reported Cmax be below 2 ng/mL?
Result: rule met

Task: Given the entry Oc1cc(O)c2c(c1)O[C@H](c1ccc(O)c(O)c1)[C@H](O)C2 [Epicatechin] , would its reported Cmax be below 2 ng/mL?
Result: rule met

Task: Given the entry CN[C@@H](C)[C@@H](O)c1ccccc1 , would its reported Cmax be below 2 ng/mL?
Result: rule not met

Task: Given the entry O=C1C[C@@H](c2ccc(O[C@@H]3O[C@H](CO)[C@@H](O)[C@H](O)[C@H]3O)cc2)Oc2cc(O)ccc21 , would its reported Cmax be below 2 ng/mL?
Result: rule not met

Task: Given the entry CC1(C)[C@@H](O)CC[C@]2(C)[C@H]3C(=O)C=C4[C@@H]5C[C@@](C)(C(=O)O)CC[C@]5(C)CC[C@@]4(C)[C@]3(C)CC[C@@H]12 , would its reported Cmax be below 2 ng/mL?
Result: rule not met

Task: Given the entry N#C[C@H](O[C@@H]1O[C@H](CO)[C@@H](O)[C@H](O)[C@H]1O)c1ccccc1 , would its reported Cmax be below 2 ng/mL?
Result: rule not met

Task: Given the entry COc1c(CC=C(C)C)c(O)cc2oc(=O)c(-c3ccc(O)cc3O)cc12 , would its reported Cmax be below 2 ng/mL?
Result: rule met

Task: Given the entry CN[C@@H](C)[C@H](O)c1ccccc1 , would its reported Cmax be below 2 ng/mL?
Result: rule not met

Task: Given the entry O=C(/C=C/c1ccc(O)cc1)c1ccc(O)cc1O , would its reported Cmax be below 2 ng/mL?
Result: rule not met

Task: Given the entry Oc1cc(O)c2c(c1)O[C@H](c1cc(O)c(O)c(O)c1)[C@H](O)C2 [Epigallocatechin] , would its reported Cmax be below 2 ng/mL?
Result: rule met

Task: Given the entry N#C[C@H](O[C@@H]1O[C@H](CO[C@@H]2O[C@H](CO)[C@@H](O)[C@H](O)[C@H]2O)[C@@H](O)[C@H](O)[C@H]1O)c1ccccc1 , would its reported Cmax be below 2 ng/mL?
Result: rule not met

Task: Given the entry CC(C(O)c1ccccc1)N(C)C (racemic) , would its reported Cmax be below 2 ng/mL?
Result: rule not met

// provenance: paper PMC5654968
